The measured values listed here are drawn from patent US20260139048A1.

TARGET SYSTEM: T1, His-tagged human TIGIT (human, UniProt Q495A1 22-141)
T1 construct: SPR analyte; also called human TIGIT protein; not shown: His tag
T1 sequence: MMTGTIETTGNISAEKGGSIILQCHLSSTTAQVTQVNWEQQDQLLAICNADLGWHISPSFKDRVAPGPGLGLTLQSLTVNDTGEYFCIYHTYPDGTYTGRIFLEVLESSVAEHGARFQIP
METHOD DESCRIPTION: SPR experiment 1, IgG from HEK293 supernatant captured
MEASUREMENT TYPE: kon (M⁻¹ s⁻¹)
Quick reminder: number only, in M⁻¹ s⁻¹, skip the unit.

Some solved entries appear below for comparison.
humanized TIGIT-6 antibody 6VH6 + 6VL1 (antibody, V domains shown, Full-length IgG, tested as HEK293 supernatant) VH: QVQLVQSGAEVKKPGASVKVSCKASGYTITENTMHWVRQAPGQRLEWIGGINPNNGGTSYNQQFKGRATLTVDTSASTAYMELSSLRSEDTAVYYCTRSSYYRYDLDYWGQGTTVTVSS VL: DIQMTQSPSSLSASVGDRVTITCKASQDVKTALAWYQQKPGKAPKLLIYSASYRYTGVPSRFSGSGSGTDFTFTISSLQPEDIATYYCHQHYTTPWTFGGGTKLEIK; 470000
humanized TIGIT-6 antibody 6VH5 + 6VL1 (antibody, V domains shown, Full-length IgG, tested as HEK293 supernatant) VH: QVQLVQSGAEVKKPGASVKVSCKASGYTITENTMHWVRQAPGQRLEWIGGINPNNGGTSYNQQFKGRATLTRDTSASTAYMELSSLRSEDTAVYYCTRSSYYRYDLDYWGQGTTVTVSS VL: DIQMTQSPSSLSASVGDRVTITCKASQDVKTALAWYQQKPGKAPKLLIYSASYRYTGVPSRFSGSGSGTDFTFTISSLQPEDIATYYCHQHYTTPWTFGGGTKLEIK; 310000
humanized TIGIT-6 antibody 6VH6.M3 + 6VL1 (antibody, V domains shown, Full-length IgG, tested as HEK293 supernatant) VH: QVQLVQSGAEVKKPGASVKVSCKASGYTITENTMHWVRQAPGQRLEWIGGINPNNGGTSYSQKFQGRATLTVDTSASTAYMELSSLRSEDTAVYYCTRSSYYRYDLDYWGQGTTVTVSS VL: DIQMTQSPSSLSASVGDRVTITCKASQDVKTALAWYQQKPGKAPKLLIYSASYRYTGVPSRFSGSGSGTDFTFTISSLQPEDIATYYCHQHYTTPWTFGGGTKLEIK; 350000

// next entry
Task item: Value lookup for kon; key = humanized TIGIT-6 antibody 6VH6.M1 + 6VL1 (antibody, V domains shown, Full-length IgG, tested as HEK293 supernatant) VH: QVQLVQSGAEVKKPGASVKVSCKASGYTFTENAMHWVRQAPGQRLEWIGGINPNNGGTSYNQQFKGRATLTVDTSASTAYMELSSLRSEDTAVYYCTRSSYYRYDLDYWGQGTTVTVSS VL: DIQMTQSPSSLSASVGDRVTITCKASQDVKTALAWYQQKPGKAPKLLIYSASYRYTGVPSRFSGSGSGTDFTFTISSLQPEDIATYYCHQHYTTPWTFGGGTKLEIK
Reply: 410000
